# TARGET_OF_ASSAY: T1, GST-human NOGO-A56 (human)
# T1 construct: Expressed in E. coli BL21 from pGEX-6P1 and purified on glutathione-sepharose; the GST tag is part of the protein in the assays; also called GST-Nogo-A 5+6; GST Nogo-A 5 + 6
# PROTOCOL_TEXT: SPR (Biacore) off-rate on NOGO chip, panel of H6FL CDR H3 variants with L13FL
READOUT_KIND: koff
Please give the number followed by its unit.

| BINDER | RESULT |
| --- | --- |
| HcLc (chimera of 2A10: murine 2A10 VH and VL with human IgG constant regions) (antibody, V domains shown, also called chimeric antibody; chimeric form of the parental antibody) VH: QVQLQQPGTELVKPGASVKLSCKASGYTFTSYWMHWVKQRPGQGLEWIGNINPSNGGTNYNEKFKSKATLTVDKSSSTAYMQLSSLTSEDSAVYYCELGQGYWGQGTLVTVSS VL: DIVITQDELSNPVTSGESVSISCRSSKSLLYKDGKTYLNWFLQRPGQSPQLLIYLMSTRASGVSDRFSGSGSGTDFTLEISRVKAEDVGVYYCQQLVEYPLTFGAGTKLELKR | 0.00558 s⁻¹ |

Exercise: Which koff is listed for H6L13 variant with VH CDR3 GQYY (antibody, human IgG1, kappa, V domains shown, Single point variant of H6FL with L13FL) VH: QVQLVQSGAEVKKPGASVKVSCKASGYTFTSYWMHWVRQAPGQGLEWIGNINPSNGGTNYNEKFKSRATMTRDTSTSTAYMELSSLRSEDTAVYYCELGQYYWGQGTLVTVSS VL: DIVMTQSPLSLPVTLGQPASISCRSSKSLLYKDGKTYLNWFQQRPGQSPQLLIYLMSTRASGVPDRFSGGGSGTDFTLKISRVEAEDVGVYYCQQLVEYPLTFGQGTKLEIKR ?
Solution: 0.0328 s⁻¹
